Where do the numbers come from? From the RNAGym collection of RNA variant scans (doi:10.1126/science.aae0568).

Reported yeast fitness is given for each of the following variants.
B1: tRNA (parent)
chain: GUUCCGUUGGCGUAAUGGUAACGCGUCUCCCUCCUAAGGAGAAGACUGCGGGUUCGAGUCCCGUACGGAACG

# Variants of: B1
# assay.summary: yeast fitness relative to wild type (ratio to wild type); higher = fitter; tRNA-Arg(CCU), competitive growth, 37 C, YPD
Fewer inactive variants are shown than the library holds.
measure: yeast fitness

• GUUCCGUUGGCGUAAUGGUAACGCGUCUCCCUCAUAAGGCGAAGACUGCGGGUUCGAGUCCCGUACGGAACG = 0.747
• GUUCCGUUGGCGUAAUGGUAACACGUCUCGCUCCUAAGGAGAAGACUGCGGGUUCGAGUCCCGUACGGAACG = 0.527
• GUUCUGUUGGCGUAAUGGUAACGCGUCUCCCUCCUAAGGAGAAGUCUGAGGGUUCGAGUCCCGUACGGAACG = 0.696
• GUUCCGUUGGCGUAAUGGUCACGCGUCUCCCUCCUAAGGAGAAGACUGCGGGUUGGAGUCCCGUACGGAACG = 0.59
• GGUCCGUUGGGGUAAUGGUUACGGGUCUCCCUCCUAAGGAGAAGACUGCGGGUUCGAGUGCCGUACGCAACG = 0.518
• GUUCCGUUGGAGUAAUGGAAACGCGUCUCCCUCCUAAGGAGUAGCCUGCGGGUUUGAGUCCCGUACGGCACG = 0.538
• GUUCCGUUGGCGUAAUGGUAACGCGUCGCCCUCCUAAGGAGAAGACUGCGGGUUCGAGUCCGGUACGGAACG = 0.587
• GUUCCGUUGGCGUAAUGGUAACGCGUCUCCCUCCUAAGGAGAAGACUGCGGGGUCGAGUCCCGUUCGGAACG = 0.635
• GUUCCGUUGGCGUAAUGGUAACGCGUAUCCCUCCUAAGGAGACGACUGCGGGUUCGAGUCCCGUACGGCACG = 0.748
